Just for reference, the supplement of paper PMC12042874 is where these values come from.

- method summary: amyloid nucleation score (Sup35N fusion, yeast selection) (log enrichment); library NNK2; higher = more nucleation; inactive = no reads after selection;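 also: zero at mode of non-aggregating sequences after 7 days selection at 30°C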
# amyloid nucleation score binned as Low (below -0.8), Mid (-0.8 to below 0.2), High (0.2 or more)

substance | assigned label
NYCVLSFDISGYAFYKEGLG | Mid
HNGVIVIDCWRRKFHPNVIS | Low
GSYVDEVSIYPDEACSYRLA | Mid
IKDMTKVIATGFCLCITLVC | High
GLRSLVHEARCRYKTSTSVK | Low
LSEFYRLRYYTGCQ | High
FEVFLM | Mid

---

Listed here are substances together with their documented amyloid nucleation score.
- method summary: amyloid nucleation score (Sup35N fusion, yeast selection) (log enrichment); library NNK2; higher = more nucleation; inactive = no reads after selection

substance | amyloid nucleation score
SKRFRLTIDGIGVYRW | 0.649
VWPLNYYGWKTNMSSCFHST | -1.1
QGEEVGWFRFGRKSGAINMV | 0.076
DGHVELCISAKDYD | -0.249
TGDCRT | 0.233
MESRILRNIYFCLTCKPSQW | 2.24
PAIHVVDTRVGWRHSMSGYS | 1.72

---

- method summary: amyloid nucleation score (Sup35N fusion, yeast selection) (log enrichment); library NNK2; higher = more nucleation; inactive = no reads after selection

sequence data | amyloid nucleation score
IHSSVGYMKTVPKLDDS | 0.207
HIRFYVLSRNRSASNISIFT | 3.09
LNVGIFNLLTSSGFMGTIRR | 4.39
TVRMIMLANLIQSYWHTIVS | -0.153

---

- method summary: amyloid nucleation score (Sup35N fusion, yeast selection) (log enrichment); library NNK1; higher = more nucleation; inactive = no reads after selection

substance | amyloid nucleation score
SLVLVYGFWELYLW | 0.689
TSRGSGSVWLDFFSHHGKIG | -0.218
TLFYFMACGQLLFGKRWNWF | 0.095
SHFGNPLKIPVFNRWTQHKA | -0.263
FVGRSVCAKMTPHRLTAIGP | -0.082
KTTLCM | -0.088
VSRLEVPRFLCTLQSTLLSS | -0.123
YSNIRFSMNIYRTLRDRLGA | 5.12
RRMTDLFV | -0.354
YYGQII | 1.54
QFMGCRFKLSDSSIWKKSLR | 0.381
FRLSWHSYNSMWINTVTSPQ | 2.75
CYAPSGLLNLPNASFS | -1.26
KSSGALDMFSDTNMV | -0.894
LVLFVTFGWCIDELRWMKRR | -0.51
LVPPGSYRSCLSHGRNCYSC | -0.203
GSATRTPVITQRICLPVGCR | -0.691
SVLKSITPNGPLLFSYVCSI | -1.56
VPCDIYQCFYLSG | 5.25
WLLVQLYYVCYFGLRLEFSM | -0.237
PPHLLFCYNMVLTWWLYAFA | 0.088
RSSWKVLKRFRVVRERHEIT | 0.257
GNANVKCGVRAISDNRARRI | 0.003
VDCMGKMVLFLPTFGDGFIV | -0.123
LGFACLSIILSRKSKMWDML | 2.13
VLCSCAMGYMFFFRAMMFR | -0.038
FSISKLFGLNADTVHTRHKK | 0.073

---

Listed here are substances together with their documented amyloid nucleation score.
- method summary: amyloid nucleation score (Sup35N fusion, yeast selection) (log enrichment); library NNK1; higher = more nucleation; inactive = no reads after selection

substance | amyloid nucleation score
GCVTYIYGCMLYCEEAFR | 5.17
CDCTSRGK | -0.407
YLNILMSWI | -0.921
AHRPGMFFRNYVVGDLS | -0.026
QQVSVLILPALTKGRKVV | -0.991
CCRVISIWG | 0.115

---

- method summary: amyloid nucleation score (Sup35N fusion, yeast selection) (log enrichment); library NNK2; higher = more nucleation; inactive = no reads after selection
# amyloid nucleation score >= 0.2 gives Yes, anything below gives No

substance | assigned label
YVYSVYNFLRVLICAGTG | Yes
ESASTVTVCLRRVKVSHR | Yes
FSVYRETERLGMSFRVRLWM | Yes
LLFINGHAMTGAVYTITKLT | No
SRCNISTRLLATLDVLQEKE | Yes
LFTVYFKK | No
GYVGLGFNLTHAFGFGSLAG | Yes
AIVGEMMALFYDNLSRGGVH | No
VSTGAWCYGLWSVLQGWERG | Yes
RVGCLWFRLYPLYSGFMRSR | No
PRAHTVNV | No
PAMSVHGNSAESTYVIMHYF | No
NRVLVLAVGHEKFIAKMRLT | Yes
FLFAKYGSIIDTSVVDRLAR | Yes
RLCRSAPG | Yes
MLGRKHSWVA | Yes
TGLYFLNSWIIMLRL | Yes
NNAMWSWSS | No
YIVQWSFMVSRSQ | Yes
FAVKGCNFGTGVFMRVE | No
AFEDVDVQS | Yes
LLGARDFGWGLHGLLGYRLG | No
IEVFDIWCPAGFVMEALRFV | Yes
TCSSPTMKSYMNHCLHVDSF | Yes
SISALLFIPAHRTIMAG | No
VGILSRWLRGRFTVTRWLWC | No
YTVGRGSR | Yes
TTSKISSSKSLEARHTSHLP | Yes
DAKRVQIYF | Yes
YSHAGEASWDYVSLWFSSRK | Yes
CSLFYRSS | Yes
LVYLELTELQLCDAFAKVKN | No
IIRTTSNRPTPLRCSPNLSM | No
EYFFYLLSSIMHIE | Yes
IPFLAVACLGDQWDD | Yes
GVHLYLNVYVTLKFTATGDS | Yes
RDGLVQMDVVLINVRVEVVC | No
VVNSQQFVGLCSRRSA | Yes
LYRAGVAFVCTYFVNSGEF | Yes
LRQCKGLRVLLPTGWSYKCE | Yes
YCCTDQGFSLGYRMLWCRDN | No
SLVIKTLMIFAYSGATVSRG | No
YGCCGKDFCVGPRGVCAV | Yes
ARNWVHNCFWSHISFTSIA | Yes
ICLVLCRGSDA | Yes
FKLICTRSWLRLG | Yes
AVRPGSRSWGVIRGVNSTFL | Yes
STIEAGCTVVCA | Yes
CINVYKY | Yes
MSMATTWSIFDWVEREFPFY | No
GWVVRRINAVVFVASGSI | Yes
ILGVRYVSCSGSLGNWAQRG | Yes
GRRFLYKPAKTWYVVWHRGL | Yes
NGLYVAIFSVNLFPPLTKYI | Yes
STILTSVFMFWVCGCFNNKT | Yes

---

- method summary: amyloid nucleation score (Sup35N fusion, yeast selection) (log enrichment); library NNK3; higher = more nucleation; inactive = no reads after selection

sequence data | amyloid nucleation score
RRYGTDRLLMRYSIENFCVL | inactive
GIYFDSGLRGWHSLNHRCRR | 0.132
QSNCCWVV | inactive

---

- method summary: amyloid nucleation score (Sup35N fusion, yeast selection) (log enrichment); library NNK3; higher = more nucleation; inactive = no reads after selection

substance | amyloid nucleation score
DPPHWVDFSRFR | inactive
RSRYSSLPLPVV | inactive
QHNLRDGMFLNGTYRNDAVR | inactive
IYSIVFFSRSLTVRVFGAHY | inactive
FDNVISILPPYFTSFSG | inactive
VFISRKCWRNHNF | inactive
RRWTTEVKQVHDYCG | inactive
LVWSSSEVVFFA | inactive
IQHFFQINNWLLDI | 1.98
ISFCYALCCNKMKRLLARCK | inactive
RKDLCDFSYLHGDPGAKPEL | inactive
LDFSPWKFSTVGSRSSGMNG | inactive
TRIFVCVFVCTTPTMHAPIW | 0.921
TDELYWLKDFLYGFYNMKSP | inactive
CKGKSFFARSYS | inactive
TYVIFCYTVSHDDSHRTLYN | 2.19
GQEGSRN | 0.186
AISYFSSWGAM | 0.485
VLCVETTCPVGDIMECCLLP | inactive
KFVLETFCHSKPRLVLVNHD | inactive
RQLTLSRITNLSLK | inactive
YLDKCIVVCFRVRNSNSFWL | 2.42
DSTEVRYQNPMTTLRGVVFW | inactive
HFHSVIELVYG | inactive
ILLMLSVQGNLLKRMRILSM | inactive
RYYGSFVEPRSFSRN | inactive
AIELIFVLWAFAHCAPCFEL | inactive
VNVDLPLARNHWYPSPIYMV | -0.654
RFLYRYG | inactive
IYVTIEFASIVCSCWESLDR | -0.091
RVYMPAAKSINYEPNITRM | inactive
THFNGEFWALSTVCMWGGRV | 0.06
VVIHRSSSISGT | inactive
GLEAPTCPEVFNIGIFSYYH | 1.45
LYTDVEYRVWCVTFLVRPSK | inactive
LKCDLMWLMLDNYTAVDSFR | inactive
MYGLLIKNSYRKRLDLSVSI | inactive
IATDRSSKVLSFHT | inactive
RDRSVKRVVHSGFRFSIGEA | inactive
WLVRMN | inactive
PAPHRIKRIL | inactive
YGSYVWYSLLVREWLNSPGY | inactive
FDTFTMTEDSNPEKSECGLK | inactive
DMTGGVCHFWSCCVSCNK | 2.96
DIWFGSSKKSVMRV | inactive
KLYNLFWNVETMVERLLLVA | inactive
GDVNCLNTVTLKNNKTRGHI | inactive
VYMLYQFSCPGVDNWVCTES | inactive
YSVVDEKVALSSSWHSCLPL | inactive
QASIVSTG | -0.926
WYFPTQ | inactive
VRVDDKSNCVTRRFKP | inactive
WAPACYTDSCVMIGGEPYRT | inactive
GGLQTERFLWRC | 0.13
RRMLIGFHVFSYYWDNEYTR | 0.611
RCIYTMVWVTNVNMVRRTGA | 1.69
LGVTGINSVIYMYEMVS | inactive
TCSDDCFLMKWYEDIRSVVT | inactive
GTGEGNDLCARQNPLHQRII | inactive
ICGMWGFDAMRITSWNVPNG | 0.075
NLMGQTSGCQCVNTACLKPC | inactive
CTFQYSIIYRCYYRYGVVR | inactive
SLYRDLHFYSVLGF | inactive
VACRFHMCLWLGRVLDYAKN | 1.1
SKNATIQAMFERLVVVIS | inactive
